Target: TYK2 JH2 domain (Homo sapiens (Human), UniProt P29597)
Sequence (P29597 589-875): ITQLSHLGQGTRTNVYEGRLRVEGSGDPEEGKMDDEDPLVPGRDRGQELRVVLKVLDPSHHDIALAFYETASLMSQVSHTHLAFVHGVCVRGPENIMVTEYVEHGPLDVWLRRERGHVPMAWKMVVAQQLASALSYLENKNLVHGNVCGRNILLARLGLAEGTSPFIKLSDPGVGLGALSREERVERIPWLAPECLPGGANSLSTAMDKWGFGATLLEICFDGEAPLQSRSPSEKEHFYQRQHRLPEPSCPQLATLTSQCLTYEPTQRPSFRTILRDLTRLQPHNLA
Assay: TYK2 JH2 NanoBRET assay
Format: binding
Conditions: Table 20, read-out: TYK2 IC50
pIC50: −log10 of the molar value.
Please provide measured pIC50 for the entries that follow.

Sample "CCC(=O)c1cnc(Nc2cnc(CNC)cn2)cc1Nc1cccc(-c2ncn(C)n2)c1OC" ; pIC50 observed: > 8.30

Sample CCC(=O)c1cnc(Nc2ccc(-n3ccccc3=O)cn2)cc1Nc1nccc(-c2ncn(C)n2)c1OC [Compound 15U] ; pIC50 observed: 7.30 to 8.30

Sample CCC(=O)c1cnc(NC(=O)C2CC2)cc1Nc1cc(CN(C)C)cc(-c2ncn(C)n2)c1OC [Compound 25C] ; pIC50 observed: ≤ 6.30

Sample CCC(=O)c1cnc(Nc2ccc(S(=O)(=O)CC)cn2)cc1Nc1nccc(-c2ncn(C)n2)c1OC [Compound 13J] ; pIC50 observed: > 8.30

Sample CCC(=O)c1cnc(Nc2ccc(-c3ccc[nH]c3=O)cn2)cc1Nc1cccc(-c2ncn(C)n2)c1OC [Compound 15W] ; pIC50 observed: 7.30 to 8.30

Sample "CCC(=O)c1cnc(Nc2ccc([C@@H](C)N3CC[C@@H](O)C3)cn2)cc1Nc1cccc(-c2ncn(C)n2)c1OC" ; pIC50 observed: > 8.30

Sample "CCC(=O)c1cnc(Nc2cc(C(=O)N(C)C)ccn2)cc1Nc1cccc(-c2ncn(C)n2)c1OC" ; pIC50 observed: > 8.30

Sample "CCC(=O)c1cnc(Nc2ncc(OC3COC3)cc2F)cc1Nc1cccc(-c2ncn(C)n2)c1OC" ; pIC50 observed: 7.30 to 8.30

Sample CCC(=O)c1cnc(Nc2ccc(CCN3CCCC3)nn2)cc1Nc1cccc(-c2ncn(C)n2)c1OC [Compound 11E] ; pIC50 observed: 6.30 to 7.30

Sample "CCC(=O)c1cnc(Nc2ncc(CN3CCCC3)cc2F)cc1Nc1cccc(-c2ncn(C)n2)c1OC" ; pIC50 observed: 7.30 to 8.30

Sample COc1c(Nc2cc(Nc3ccc(-c4ncn(C)n4)cn3)ncc2C(=O)C2CC2)cccc1-c1ncn(C)n1 [Compound 15N] ; pIC50 observed: 7.30 to 8.30

Sample CCC(=O)c1cnc(Nc2cnc(OCCN3CC(C#N)C3)cn2)cc1Nc1cccc(-c2ncn(C)n2)c1OC [Compound 18RR] ; pIC50 observed: 7.30 to 8.30

Sample CCC(=O)c1cnc(Nc2ccn(-c3ccccn3)n2)cc1Nc1cccc(-c2ncn(C)n2)c1OC [Compound 21E] ; pIC50 observed: > 8.30

Sample CCC(=O)c1cnc(NC(=O)[C@@H]2C[C@H]2NC(C)=O)cc1Nc1cccc(-c2ncn(C)n2)c1OC [Compound 22I] ; pIC50 observed: ≤ 6.30

Sample CCC(=O)c1cnc(Nc2ccc(C(C)N(C)C)nn2)cc1Nc1cccc(-c2ncn(C)n2)c1OC (centres unmarked) ; pIC50 observed: > 8.30

Sample CCC(=O)c1cnc(NC(=O)C2CC2)cc1Nc1cc(F)cc(-c2ncn(CCO)n2)c1OC [Compound 25F] ; pIC50 observed: 6.30 to 7.30

Sample CCC(=O)c1cnc(Nc2cc(C)n([C@H]3C[C@@H](OC)C3)n2)cc1Nc1cccc(-c2ncn(C)n2)c1OC [Compound 21EE] ; pIC50 observed: > 8.30

Sample "COc1c(Nc2cc(Nc3ccc(CS(C)(=O)=O)cn3)ncc2C(=O)C2CC2)cccc1-c1ncn(C)n1" ; pIC50 observed: > 8.30

Sample "CCC(=O)c1cnc(Nc2cnc(O[C@H]3CCN(C)C[C@@H]3F)cn2)cc1Nc1cccc(-c2ncn(C)n2)c1OC" ; pIC50 observed: 7.30 to 8.30

Sample CCC(=O)c1cnc(Nc2ccc(S(N)(=O)=O)cn2)cc1Nc1cccc(-c2ncn(C)n2)c1OC [Compound 13B] ; pIC50 observed: > 8.30

Sample "CCC(=O)c1cnc(Nc2ccc(O[C@@H]3CCOC3)c(C)n2)cc1Nc1cccc(-c2ncn(C)n2)c1OC" ; pIC50 observed: > 8.30

Sample "CCC(=O)c1cnc(Nc2ccc(OC3COC3)c(C)n2)cc1Nc1cccc(-c2ncn(C)n2)c1OC" ; pIC50 observed: > 8.30

Sample "CCC(=O)c1cnc(Nc2ncc(CN(C)C)cc2F)cc1Nc1cccc(-c2ncn(C)n2)c1OC" ; pIC50 observed: 7.30 to 8.30

Sample CCC(=O)c1cnc(Nc2ccn(CC3(C)COC3)n2)cc1Nc1cccc(-c2ncn(C)n2)c1OC [Compound 21Q] ; pIC50 observed: 6.30 to 7.30

Sample "CCC(=O)c1cnc(Nc2ccc(CN)nn2)cc1Nc1cccc(-c2ncn(C)n2)c1OC" ; pIC50 observed: 6.30 to 7.30

Sample CCC(=O)c1cnc(Nc2ccc(CS(C)(=O)=O)nn2)cc1Nc1cccc(-c2ncn(C)n2)c1OC [Compound 13T] ; pIC50 observed: 7.30 to 8.30

Sample CCC(=O)c1cnc(Nc2ccnc(OC3CCN(C)CC3)n2)cc1Nc1cccc(-c2ncn(C)n2)c1OC [Compound 18II] ; pIC50 observed: 7.30 to 8.30

Sample CCC(=O)c1cnc(Nc2ccc(CCN(C)C)nn2)cc1Nc1cccc(-c2ncn(C)n2)c1OC [Compound 11D] ; pIC50 observed: 7.30 to 8.30

Sample COc1c(Nc2cc(Nc3ccc(OC[C@@H](O)CO)cn3)ncc2C(=O)C2CC2)cccc1-c1ncn(C)n1 [Compound 18I] ; pIC50 observed: 7.30 to 8.30

----------
Molecular target: TYK2 JH2 domain (Homo sapiens (Human), UniProt P29597)
Assay: TYK2 JH2 NanoBRET assay
Format: binding
Details: Table 20, read-out: TYK2 IC50
pIC50: −log10 of the molar value.
REPORTED ENDPOINT: pIC50

Sample CCC(=O)c1cnc(Nc2ccc(CS(C)(=O)=O)cn2)cc1Nc1nccc(-c2ncn(C)n2)c1OC [Compound 13M] ; pIC50 observed: > 8.30

Sample CCC(=O)c1cnc(Nc2ccc(OC[C@H](O)CO)cn2)cc1Nc1cccc(-c2ncn(C)n2)c1OC [Compound 18G] ; pIC50 observed: 7.30 to 8.30

Sample CCC(=O)c1cnc(Nc2cnc(OCCN3CC[C@H](F)C3)cn2)cc1Nc1cccc(-c2ncn(C)n2)c1OC [Compound 18XX] ; pIC50 observed: 7.30 to 8.30

Sample CCC(=O)c1cnc(Nc2ccc(C(C)NC)nn2)cc1Nc1cccc(-c2ncn(C)n2)c1OC (stereo not drawn) [Compound 9JJJ] ; pIC50 observed: 7.30 to 8.30

Sample CCC(=O)c1cnc(Nc2cnc(OCCN3CC[C@@H](F)C3)cn2)cc1Nc1cccc(-c2ncn(C)n2)c1OC [Compound 18YY] ; pIC50 observed: 7.30 to 8.30

Sample CCC(=O)c1cnc(Nc2ccc(CN3CCS(=N)(=O)CC3)cn2)cc1Nc1cccc(-c2ncn(C)n2)c1OC [Compound 9WW] ; pIC50 observed: 7.30 to 8.30

Sample COc1c(Nc2cc(Nc3ccc(OC(CO)CO)cn3)ncc2C(=O)C2CC2)cccc1-c1ncn(C)n1 [Compound 18K] ; pIC50 observed: 7.30 to 8.30

Sample CCC(=O)c1cnc(NC(=O)C2CC2)cc1Nc1cc(C#N)cc(-c2ncn(C)n2)c1OC [Compound 25B] ; pIC50 observed: ≤ 6.30

Sample CCC(=O)c1cnc(Nc2cnc(CN(C)CC(F)F)cn2)cc1Nc1cccc(-c2ncn(C)n2)c1OC [Compound 9WWW] ; pIC50 observed: 7.30 to 8.30

Sample CCC(=O)c1cnc(Nc2ccn([C@H]3C[C@@H](O)C3)n2)cc1Nc1cccc(-c2ncn(C)n2)c1OC [Compound 21J] ; pIC50 observed: 7.30 to 8.30

Sample CCC(=O)c1cnc(Nc2cnc(O[C@@H]3CCN(CC(F)(F)F)C3)cn2)cc1Nc1cccc(-c2ncn(C)n2)c1OC [Compound 18LLL] ; pIC50 observed: 7.30 to 8.30

Sample CCC(=O)c1cnc(Nc2ccc(O[C@H]3CN(C)C[C@@H]3O)cn2)cc1Nc1cccc(-c2ncn(C)n2)c1OC [Compound 18S] ; pIC50 observed: 7.30 to 8.30

Sample CCC(=O)c1cnc(NC(=O)[C@@H]2C[C@H]2CC#N)cc1Nc1cccc(-c2ncn(C)n2)c1OC [Compound 22L] ; pIC50 observed: ≤ 6.30

Sample CCC(=O)c1cnc(Nc2ccc(CN3C4COCC3C4)cn2)cc1Nc1cccc(-c2ncn(C)n2)c1OC [Compound 9XX] ; pIC50 observed: > 8.30

Sample CCC(=O)c1cnc(Nc2cc(OCCO)n(C)n2)cc1Nc1cccc(-c2ncn(C)n2)c1OC [Compound 21AA] ; pIC50 observed: 7.30 to 8.30

----------
pIC50: −log10 of the molar value.
REPORTED ENDPOINT: pIC50

Bench note, human JAK3 (Homo sapiens (Human)): CCC(=O)c1cnc(Nc2ccc(CN3CC(OC)C3)cn2)cc1Nc1cccc(-c2ncn(C)n2)c1OC [Compound 9DD] , pIC50 reads ≤ 6.30

Bench note, human JAK3 (Homo sapiens (Human)): CCC(=O)c1cnc(Nc2cnc(OC3CCN(C)CC3)cn2)cc1Nc1cccc(-c2ncn(C)n2)c1OC [Compound 18EEE] , pIC50 reads ≤ 6.30

Bench note, human JAK3 (Homo sapiens (Human)): CCC(=O)c1cnc(NC(=O)CC2(O)CC2)cc1Nc1cccc(-c2ncn(C)n2)c1OC [Compound 23C] , pIC50 reads ≤ 6.30

Bench note, human JAK3 (Homo sapiens (Human)): CCC(=O)c1cnc(Nc2ccc(O[C@H]3CCN(C)C3)cn2)cc1Nc1cccc(-c2ncn(C)n2)c1OC [Compound 18W] , pIC50 reads ≤ 6.30

Bench note, human JAK3 (Homo sapiens (Human)): CCC(=O)c1cnc(Nc2cnc(C3(NC)CC3)cn2)cc1Nc1cccc(-c2ncn(C)n2)c1OC [Compound 9ZZZ] , pIC50 reads ≤ 6.30

Bench note, human JAK3 (Homo sapiens (Human)): CCC(=O)c1cnc(Nc2ccc(OCCO)nn2)cc1Nc1cccc(-c2ncn(C)n2)c1OC [Compound 18M] , pIC50 reads ≤ 6.30

Bench note, human JAK3 (Homo sapiens (Human)): CCC(=O)c1cnc(Nc2ccn(S(=O)(=O)C3CC3)n2)cc1Nc1cccc(-c2ncn(C)n2)c1OC [Compound 21D] , pIC50 reads ≤ 6.30

Bench note, human JAK3 (Homo sapiens (Human)): CCC(=O)c1cnc(Nc2cnc(O[C@H]3CN(C)CC3(F)F)cn2)cc1Nc1cccc(-c2ncn(C)n2)c1OC [Compound 18RRR] , pIC50 reads ≤ 6.30

Bench note, human JAK3 (Homo sapiens (Human)): CCC(=O)c1cnc(Nc2ccc(S(C)(=O)=O)cn2)cc1Nc1cccc(CO)c1OC [Compound 13P] , pIC50 reads 6.30 to 7.30

Bench note, human JAK3 (Homo sapiens (Human)): CCC(=O)c1cnc(NC(=O)C2CC2)cc1Nc1cc(C#N)cc(-c2ncn(C)n2)c1OC [Compound 25B] , pIC50 reads ≤ 6.30

Bench note, human JAK3 (Homo sapiens (Human)): CCC(=O)c1cnc(Nc2ccc(CN)cn2)cc1Nc1cccc(-c2ncn(C)n2)c1OC [Compound 9B] , pIC50 reads ≤ 6.30

Bench note, human JAK3 (Homo sapiens (Human)): CCC(=O)c1cnc(Nc2cnc(OCCN3CCCC3)cn2)cc1Nc1cccc(-c2ncn(C)n2)c1OC [Compound 18VV] , pIC50 reads ≤ 6.30

Bench note, human JAK3 (Homo sapiens (Human)): CCC(=O)c1cnc(Nc2ccc(-c3ncn(C)n3)cn2)cc1Nc1nccc(-c2ncn(C)n2)c1OC [Compound 15M] , pIC50 reads ≤ 6.30

Bench note, human JAK3 (Homo sapiens (Human)): CCC(=O)c1cnc(Nc2cnc(OCCN)cn2)cc1Nc1cccc(-c2ncn(C)n2)c1OC [Compound 18MM] , pIC50 reads ≤ 6.30

Bench note, human JAK3 (Homo sapiens (Human)): CCC(=O)c1cnc(Nc2ccc(S(=O)(=O)N3CCOCC3)cn2)cc1Nc1cccc(-c2ncn(C)n2)c1OC [Compound 13E] , pIC50 reads ≤ 6.30
